System: Trichoderma viride
test method notes: Fungicidal activity against Trichoderma viride CECT 2423 at 0.2 mg/disk after 48 hrs by agar diffusion assay
Type: functional
parameter measured: inhibition zone (IZ)

INSERT INTO measurements (molecule, experimental_value) VALUES
  ('O=C1CCC2c3ccc(OCc4ccccc4)cc3CCN12 (centres undefined)', '6 mm'),
  ('CCNC(=O)Oc1ccc2c(c1)CCN1C(=O)CCC21 (centres undefined)', '0 mm'),
  ('COc1cc2c(cc1Cl)CCN1C(=O)CCC21 (centres undefined)', '0 mm');

With those in mind, consider the next molecule.
Memo: O=C1CCC2c3ccc(OCc4ccc(F)cc4)cc3CCN12 (centres undefined) , reported inhibition zone (IZ): 8.1 mm

---

System: Geotrichum candidum
test method notes: Fungicidal activity against Geotrichum candidum CCM 245 at 0.2 mg/disk after 48 hrs by agar diffusion assay
Format: functional
Listing: inhibition zone (IZ) of selected compounds
Number first, unit second: that is the form wanted.

Worked examples, 4 compounds total:
INSERT INTO assay_data (compound, parameter_measured, experimental_value) VALUES
  ('CCCCNC(=O)n1c(NC(=O)OC)nc2ccccc21 [BENOMYL]', 'inhibition zone (IZ)', '0 mm'),
  ('O=C1CCC2c3ccc(OCc4ccccc4)cc3CCN12 (stereo not given)', 'inhibition zone (IZ)', '6.16 mm'),
  ('O=C1CCC2c3ccc(OCc4ccc(F)cc4)cc3CCN12 (stereo not given)', 'inhibition zone (IZ)', '7 mm'),
  ('COc1cc2c(cc1Cl)CCN1C(=O)CCC21 (stereo not given)', 'inhibition zone (IZ)', '6.33 mm');

With those in mind, consider the next compound.
Memo: CCNC(=O)Oc1ccc2c(c1)CCN1C(=O)CCC21 (stereo not given) , reported inhibition zone (IZ): 0 mm

---

Tested on: Enterococcus faecalis
test method notes: Bactericidal activity against Enterococcus faecalis CECT 481 at 0.2 mg/disk after 24 hrs by agar diffusion assay
Type: functional
parameter measured: inhibition zone (IZ)
Number first, unit second: that is the form wanted.

Worked examples, 3 compounds total:
INSERT INTO results (compound, experimental_value) VALUES
  ('O=C(COc1ccc2c(c1)CCN1C(=O)CCC21)Nc1ccccc1 (centres undefined)', '7.33 mm'),
  ('CN(C)[C@@H]1C(O)=C(C(N)=O)C(=O)[C@@]2(O)C(O)=C3C(=O)c4c(O)cccc4[C@@](C)(O)[C@H]3C[C@@H]12', '26 mm'),
  ('COc1cc2c(cc1Cl)CCN1C(=O)CCC21 (centres undefined)', '6.83 mm');

Reading of inhibition zone (IZ) for CCNC(=O)Oc1ccc2c(c1)CCN1C(=O)CCC21 (centres undefined) with Enterococcus faecalis: 8.5 mm

Reading of inhibition zone (IZ) for O=C1CCC2c3ccc(O)cc3CCN12 (centres undefined) with Enterococcus faecalis: 0 mm

Reading of inhibition zone (IZ) for O=C1CCC2c3ccc(OCc4ccccc4)cc3CCN12 (centres undefined) with Enterococcus faecalis: 6.83 mm

Reading of inhibition zone (IZ) for O=C1CCC2c3cc(O)c(O)cc3CCN12 (racemic) with Enterococcus faecalis: 0 mm

Reading of inhibition zone (IZ) for O=C1CCC2c3cc(OCc4ccc(F)cc4)c(OCc4ccc(F)cc4)cc3CCN12 (centres undefined) with Enterococcus faecalis: 6.33 mm

Reading of inhibition zone (IZ) for O=C1CCC2c3ccc(OCc4ccc(F)cc4)cc3CCN12 (centres undefined) with Enterococcus faecalis: 0 mm

---

Tested on: Escherichia coli
test method notes: Bactericidal activity against Escherichia coli CECT 405 at 0.2 mg/disk after 24 hrs by agar diffusion assay
Type: functional
parameter measured: inhibition zone (IZ) (mm)
Respond numerically; units are mm and should not be typed.

INSERT INTO measurements (compound, experimental_value) VALUES
  ('O=C1CCC2c3ccc(OCc4ccc(F)cc4)cc3CCN12 (centres undefined)', 6.16),
  ('O=C1CCC2c3cc(O)c(O)cc3CCN12 (racemic)', 0),
  ('O=C1CCC2c3cc(OCc4ccc(F)cc4)c(OCc4ccc(F)cc4)cc3CCN12 (centres undefined)', 6.83);

Reading of inhibition zone (IZ) for COc1cc2c(cc1Cl)CCN1C(=O)CCC21 (centres undefined) with Escherichia coli: 6.83

Reading of inhibition zone (IZ) for CN(C)[C@@H]1C(O)=C(C(N)=O)C(=O)[C@@]2(O)C(O)=C3C(=O)c4c(O)cccc4[C@@](C)(O)[C@H]3C[C@@H]12 with Escherichia coli: 25.66

Reading of inhibition zone (IZ) for O=C1CCC2c3ccc(OCc4ccccc4)cc3CCN12 (centres undefined) with Escherichia coli: 6.33

Reading of inhibition zone (IZ) for O=C(COc1ccc2c(c1)CCN1C(=O)CCC21)Nc1ccccc1 (centres undefined) with Escherichia coli: 7.5

Reading of inhibition zone (IZ) for O=C1CCC2c3ccc(O)cc3CCN12 (centres undefined) with Escherichia coli: 0

Reading of inhibition zone (IZ) for CCNC(=O)Oc1ccc2c(c1)CCN1C(=O)CCC21 (centres undefined) with Escherichia coli: 6.83
